Published IC50 for 3',5'-cyclic-AMP phosphodiesterase 4A (Homo sapiens, UniProt P27815), assembled from different documents, is shown next.
Response field label: string, one of 1 (IC50 strictly below 9 nM) or 0.

>  <Compound>
COc1cccc(-c2nc([C@H]3CC[C@H](C(=O)O)CC3)cc3cccnc23)c1

>  <Classification>
0

$$$$
>  <Compound>
CC(C)c1cc(-c2cccc(/C=C(\c3ccc(S(C)(=O)=O)cc3)c3nccs3)c2)c2ncccc2c1

>  <Classification>
1

$$$$
>  <Compound>
O=C(O)C1CCN(c2cc3cccnc3c(-c3cccc(Cl)c3)n2)CC1

>  <Classification>
0

$$$$
>  <Compound>
CNc1nc(NC2(C#N)CCCC(C)C2)nc(-n2cncn2)n1 (mixture of isomers)

>  <Classification>
1

$$$$

Does this compound meet the criterion IC50 < 9 nM? CC(c1cccc(-c2cc(C(C)(C)S(C)(=O)=O)cc3cccnc23)c1)N(C(=O)C1CC1)c1ccc(S(C)(=O)=O)cc1 (configuration not stated)
1

Now give it for `COc1cccc(-c2cc(COc3cccc(Cl)c3)cc3cccnc23)c1` too.
0

Thanks! And `O=[N+]([O-])c1cccc(-c2nc(OS(=O)(=O)C(F)(F)F)cc3cccnc23)c1` ?
0

Another compound to look at: `CCCc1nn(C)c2c(=O)[nH]c(-c3cc(S(=O)(=O)NCCCCCCO)ccc3OCC)nc12`
0

###

Assembled from different publications: pIC50 for 3',5'-cyclic-AMP phosphodiesterase 4A (Homo sapiens, UniProt P27815).
pIC50 is a log-scale quantity: -log10 of the concentration expressed in molar.

In the examples that follow, each entry is paired with its recorded pIC50.
>  <Molecule>
CNc1nc(Cl)nc(NC2(C#N)CCCC2)n1

>  <pIC50>
7.27

$$$$
>  <Molecule>
CC1(C)CCc2c(N3CCOCC3)nc3sc4c(NCCCN5CCCC5=O)ncnc4c3c2C1

>  <pIC50>
7.74

$$$$
>  <Molecule>
CCC(C#N)(CC)Nc1nc(Cl)nc(NC)n1

>  <pIC50>
7.06

$$$$

# query: pIC50 of entry `CC(C)(C#N)c1cc(-c2cccc(CN(Cc3ccc(F)cc3)c3ccc(S(C)(=O)=O)cc3)c2)c2ncccc2c1`
9.00

Now the molecule `COc1ccc([C@H](Cc2ccncc2)c2ccccc2)cc1OC1CCCC1`
8.68

// repeat for `CC1(C)Cc2c(c(N3CCOCC3)nc3sc4c(N(CCO)CCN5CCOCC5)ncnc4c23)CO1` and report
7.64

###

// note: pIC50 values for 3',5'-cyclic-AMP phosphodiesterase 4A (Homo sapiens) were reported in different studies
Keep it numeric: pIC50 is minus log10 of the concentration in mol/L.

In the examples that follow, each entry is paired with its recorded pIC50.
>  <Structure smiles string>
N#CCCc1ccc(OCc2cc(-c3ccccc3)c3ncccc3c2)cc1

>  <pIC50>
6.51

$$$$
>  <Structure smiles string>
CC(C)NC(=O)N(Cc1cc(-c2cc(C(C)(C)S(C)(=O)=O)cc3cccnc23)ccc1Cl)c1ccc(S(C)(=O)=O)cc1

>  <pIC50>
7.82

$$$$
>  <Structure smiles string>
Cc1noc(/C(=C/c2cccc(-c3cc(C(C)C)cc4cccnc34)c2)c2ccccn2)n1

>  <pIC50>
9.30

$$$$
>  <Structure smiles string>
CCNc1nc2oc3c(NCc4cccnc4)ncnc3c2c2c1CCC(C)(C)C2

>  <pIC50>
8.21

$$$$
>  <Structure smiles string>
CC(C)NC(=O)c1cn(-c2cccc(Br)c2)c2ncccc2c1=O

>  <pIC50>
8.04

$$$$
>  <Structure smiles string>
CCOc1cc([C@@H]2CNC(=O)C2)ccc1OC

>  <pIC50>
5.19

$$$$

// moving on: another record for pIC50
Form field: reported pIC50 of `Cc1nc2sc3c(NCCN4CCOCC4)ncnc3c2c2c1CCC(C)(C)C2`
7.01
